- assayName: In vivo pharmacokinetic properties in rats
- conditionLabel: SD rats, p.o. 10 mg/kg
Lab note - cut at 9 µg·h/mL for AUCINF—obs: label 1 if strictly below, label 0 if not.

• C[C@@H](NC(=O)CC1CC(F)(F)C1)C(=O)N[C@H](Cc1ccccc1)C(=O)C(=O)NCc1nccs1 = label 1
• C[C@@H](NC(=O)C1CCC(F)(F)CC1)C(=O)N[C@H](Cc1ccccc1)C(=O)C(=O)NCc1nccs1 = label 1
• COC[C@@H](NC(=O)CC1CC(F)(F)C1)C(=O)N[C@H](Cc1ccccc1)C(=O)C(=O)NCc1nccs1 = label 0
• COC[C@@H](NC(=O)C1CCC(F)(F)CC1)C(=O)N[C@H](Cc1ccccc1)C(=O)C(=O)NCc1nccs1 = label 0
• C[C@@H](NC(=O)C1CCC(F)(F)C1)C(=O)N[C@H](Cc1ccccc1)C(=O)C(=O)NCc1nccs1 (some centres unmarked) = label 1

----------
- systemTested: recombinant SARS-CoV-2 M^pro (Severe acute respiratory syndrome coronavirus 2 (2019-nCoV) (SARS-CoV-2), UniProt P0DTD1)
- assayName: Inhibition of SARS-CoV-2 M^pro enzyme activity (fluorescent substrate assay)
- Assay type: biochemical
- conditionLabel: inhibition of SARS-CoV-2 M^pro enzyme activity; values in nM; read-out: IC50
endpointLabel: log10 IC50 (log10 of the value in nM)

• O=C(NCc1nccs1)C(=O)[C@@H](Cc1ccccc1)NC(=O)C1(NC(=O)C2CCCC(F)(F)C2)CC(F)(F)C1 (stereo partly shown) [Compound 545] = 1.43
• C[C@@H](NC(=O)CC1CC1(F)F)C(=O)N[C@H](Cc1ccco1)C(=O)C(=O)NCc1nccs1 (stereo partly shown) [Compound 368] = 2.29
• C[C@@H](NC(=O)C1CCC(C(F)(F)F)CC1)C(=O)N[C@H](Cc1ccccc1)C(=O)C(=O)NCc1ccccn1 (stereo partly shown) [Compound 110] = 1.50
• CC(C)(C(=O)N[C@H](Cc1ccccc1)C(=O)C(=O)NCc1ccccn1)n1cc(-c2cccc(F)c2)cn1 [Compound 329] = 1.29
• O=C(Cn1cc(-c2cc(F)ccc2F)cn1)N[C@H](Cc1ccccc1)C(=O)C(=O)NCc1nccs1 [Compound 507] = 1.10
• COC[C@@H](NC(=O)CC1CC1(F)F)C(=O)N[C@H](Cc1ccccc1)C(=O)C(=O)NCc1nccs1 (stereo partly shown) [Compound 396] = 1.69
• O=C(NCc1ccccn1)C(=O)[C@@H](Cc1ccccc1)NC(=O)C1(NC(=O)c2ccc(F)cc2)CC1 [Compound 170] = 1.29

----------
- systemTested: recombinant SARS-CoV-2 M^pro (Severe acute respiratory syndrome coronavirus 2 (2019-nCoV) (SARS-CoV-2), UniProt P0DTD1)
- assayName: Inhibition of SARS-CoV-2 M^pro enzyme activity (fluorescent substrate assay)
- Type: biochemical
- conditionLabel: inhibition of SARS-CoV-2 M^pro enzyme activity; values in nM; read-out: IC50
endpointLabel: IC50 (nM)

- O=C(NCc1ccccn1)C(=O)[C@@H](Cc1ccccc1)NC(=O)C1(C(=O)Nc2ccc(F)cc2)CC1: 125
- Cc1nn(CC(=O)N[C@H](Cc2ccccc2)C(=O)C(=O)NCc2nccs2)c(C)c1C1CCC(F)(F)CC1: 151
- N#Cc1cc(F)cc(C(=O)NCC(=O)N[C@H](Cc2ccccc2)C(=O)C(=O)NCc2ccccn2)c1: 20.6
- C[C@@H](NC(=O)C(C)(C)Sc1ccc(Cl)cc1Cl)C(=O)N[C@H](Cc1ccccc1)C(=O)C(=O)NCc1ccccn1: 8.2
- COc1ccc(OC(C)C(=O)N[C@H](Cc2ccccc2)C(=O)C(=O)NCc2ccccn2)cc1 (some centres unmarked): 351
- CC(C)(C)OC(=O)N1CC(NC(=O)C2CCC(F)(F)CC2)(C(=O)N[C@H](Cc2ccccc2)C(=O)C(=O)NCc2ccccn2)C1: 38.2
- O=C(NCc1cscn1)C(=O)[C@@H](Cc1ccccc1)NC(=O)[C@H]1CC(F)(F)CN1C(=O)C1CCC(F)(F)CC1: 750
- C[C@@H](NC(=O)C1Cc2ccccc2O1)C(=O)N[C@H](Cc1ccccc1)C(=O)C(=O)NCc1ccccn1 (some centres unmarked): 26.6
- C=C[C@@H]1C[C@]1(NC(=O)C1CCC(F)(F)CC1)C(=O)N[C@H](Cc1ccccc1)C(=O)C(=O)NCc1ccccn1: 33.8
- C[C@@H](NC(=O)Cc1cc2ccccc2o1)C(=O)N[C@H](Cc1ccccc1)C(=O)C(=O)NCc1ccccn1: 27.8
- C[C@@H](NC(=O)C1CCC(F)(F)CC1)C(=O)N[C@H](Cc1ccc(F)cc1)C(=O)C(=O)NCc1ccccn1: 36.4
- CC(C)(C(=O)N[C@H](Cc1ccccc1)C(=O)C(=O)NCc1nccs1)n1cc(-c2cccc(F)c2)cn1: 50.8
- CC(C)(C)C[C@@H](NC(=O)C1CCC(F)(F)CC1)C(=O)N[C@H](Cc1ccccc1)C(=O)C(=O)NCc1ccccn1: 25.8
- O=C(NCc1ccccn1)C(=O)[C@@H](Cc1ccccc1)NC(=O)C1(NC(=O)c2cnccn2)CC1: 252

Origin of measurements: patent US20250064789A1
